Assay: Selectivity index, ratio of IC50 for human HepG2 cells to MIC for multidrug-resistant Mycobacterium tuberculosis
Assay type: toxicity, cell-based
Settings: read-out: Selectivity Index
property measured: selectivity ratio

Field: example entries. Status: answers known.
O=C(Oc1ccc(Cl)cc1C(=O)Nc1ccc(Cl)c(Cl)c1)c1ccc(Br)cc1 : > 100
Cc1ccc(C(=O)Oc2ccc(Cl)cc2C(=O)Nc2ccc(C(F)(F)F)cc2)cc1 : > 25
Cc1ccc(C(=O)Oc2ccc(Cl)cc2C(=O)Nc2ccc(Cl)c(Cl)c2)cc1 : > 25
O=C(Oc1ccc(Cl)cc1C(=O)Nc1ccc(C(F)(F)F)cc1)c1ccc([N+](=O)[O-])cc1 : > 50
O=C(Oc1ccc(Cl)cc1C(=O)Nc1ccc(Cl)c(Cl)c1)c1ccc([N+](=O)[O-])cc1 : > 100
O=C(Oc1ccc(Cl)cc1C(=O)Nc1ccc(C(F)(F)F)cc1)c1ccc(Br)cc1 : > 25

Reported selectivity ratio for "O=C(Oc1ccc(Br)cc1C(=O)Nc1ccc(C(F)(F)F)cc1)c1ccc(Br)cc1" : what is it?
> 50

Reported selectivity ratio for "Cc1ccc(C(=O)Oc2ccc(Br)cc2C(=O)Nc2ccc(C(F)(F)F)cc2)cc1" : what is it?
> 25

Reported selectivity ratio for "O=C(Oc1ccc(Br)cc1C(=O)Nc1ccc(C(F)(F)F)cc1)c1ccc([N+](=O)[O-])cc1" : what is it?
> 100

----------
System: Mycobacterium tuberculosis
Test: Antimycobacterial activity against INH, RIF, rifabutin, streptomycin, ethambutol, ofloxacin, gentamicin, amikacin-resistant Mycobacterium tuberculosis Praha 131 after 21 days by microdilution method
Format: functional
Details: Praha 131, 504 h
property measured: MIC
# answer = value followed by unit

O=C(Oc1ccc(Cl)cc1C(=O)Nc1ccc(C(F)(F)F)cc1)c1ccc(Br)cc1 : 1 µM
O=C(Oc1ccc(Br)cc1C(=O)Nc1ccc(C(F)(F)F)cc1)c1ccc(Br)cc1 : 1 µM
O=C(Oc1ccc(Cl)cc1C(=O)Nc1ccc(C(F)(F)F)cc1)c1ccccc1 : 0.5 µM
O=C(Oc1ccc(Br)cc1C(=O)Nc1ccc(C(F)(F)F)cc1)c1ccccc1 : 1 µM
Cc1ccc(C(=O)Oc2ccc(Cl)cc2C(=O)Nc2ccc(C(F)(F)F)cc2)cc1 : 1 µM

Now turn to the next compound.
Give MIC (Mycobacterium tuberculosis) of the following compound: "Cc1ccc(C(=O)Oc2ccc(Br)cc2C(=O)Nc2ccc(C(F)(F)F)cc2)cc1"
1 µM

----------
Measured MIC of individual entries
System: Mycobacterium tuberculosis
Test: Antimycobacterial activity against INH, RIF, rifabutin, streptomycin, ethambutol, ofloxacin, gentamicin, amikacin-resistant Mycobacterium tuberculosis Praha 131 after 21 days by microdilution method
Assay type: functional
Details: Praha 131, 504 h
# answer = value followed by unit

Reported MIC for "O=C(Oc1ccc(Cl)cc1C(=O)Nc1ccc(Cl)c(Cl)c1)c1ccc(C(F)(F)F)cc1" : what is it?
2 µM

Reported MIC for "O=C(Oc1ccc(Cl)cc1C(=O)Nc1ccc(Cl)c(Cl)c1)c1ccccc1" : what is it?
1 µM

Reported MIC for "O=C(Oc1ccc(Cl)cc1C(=O)Nc1ccc(Cl)c(Cl)c1)c1ccc([N+](=O)[O-])cc1" : what is it?
0.25 µM

Reported MIC for "O=C(Oc1ccc(Cl)cc1C(=O)Nc1ccc(Cl)c(Cl)c1)c1ccc(Br)cc1" : what is it?
0.25 µM

Reported MIC for "Cc1ccc(C(=O)Oc2ccc(Cl)cc2C(=O)Nc2ccc(Cl)c(Cl)c2)cc1" : what is it?
1 µM

Reported MIC for "O=C(Oc1ccc(Cl)cc1C(=O)Nc1ccc(C(F)(F)F)cc1)c1ccc([N+](=O)[O-])cc1" : what is it?
1 µM

Reported MIC for "O=C(Oc1ccc(Br)cc1C(=O)Nc1ccc(C(F)(F)F)cc1)c1ccc([N+](=O)[O-])cc1" : what is it?
0.5 µM

Reported MIC for "O=C(Oc1ccc(Br)cc1C(=O)Nc1ccc(C(F)(F)F)cc1)c1ccc(C(F)(F)F)cc1" : what is it?
1 µM

Reported MIC for "O=C(Oc1ccc(Cl)cc1C(=O)Nc1ccc(C(F)(F)F)cc1)c1ccc(C(F)(F)F)cc1" : what is it?
1 µM
